biological target: T1, HLA-A*0201 molecule expressed on human T2 cells (human); assay: T2 cells (HLA-A*0201), peptide at 10 µM, anti-HLA-A2 flow cytometry
T1 construct: also called HLA-A2
Overview of recorded mean relative fluorescence intensity (HIV peptide = 100) for various binders

Recorded mean relative fluorescence intensity (HIV peptide = 100), per entry:
| BINDER | DATA VALUE |
| --- | --- |
| FLLFLTPME [CD19-H2] | 7 % of HIV pol 589-597 at 100 µM |
| IALGGLLMI [MS4A1-H1] | 1.9 % of HIV pol 589-597 at 100 µM |
| LQMGGFYLL [CD19-B7] | 4.5 % of HIV pol 589-597 at 100 µM |

Please examine the following record next.
Given the binder ILPGLLFGL [TNFRSF13C-B31] , what is its reported mean relative fluorescence intensity (HIV peptide = 100)?
71.9 % of HIV pol 589-597 at 100 µM

The origin of these recorded values is patent US20220323561A1.
